From: patent US20200369765A1

- subjectOfTest: T1, Human Siglec-9 mutant M15 (human, UniProt Q9Y336 18-463)
- T1 construct: Expressed on HEK293T cells; also called Mutant 15
- testMethodNotes: flow cytometry, HEK293T transfectants

{"binder": "mAbC (antibody, human IgG1, V domains shown) VH: QIQLVQSGPELKKPGETVKISCKASGYTFTNYEMNWVKEAPGKGLKWMGWINTYTGESTYADDFKGRFAFSLETSASTVYLQINNLKDEDVATYFCVRDDYGRSYGFAYWGQGTLVTVSA VL: NIVLTQSPASLTVSLGQRANISCRASESVDSYGNSFMHWYQQKPGQPPKLLIYLASKLESGVPARFSGSGSRTDFTLTIDPVETDDAATYYCHQNNEDPPWTFGGGTKLEIK", "binding result": "binds"}
{"binder": "Fab.A (Fab of mAbA) (Fab, V domains shown) VH: QVQLQQPGAELVKPGSPVKLSCKASYFTFTSYWMHWVRQRPGQGLEWIGEINPSNGHTNYNEKFESKATLTVDRSSSTAYMQLSSLTSEDSAVFYCANGVESYDFDDALDYWGQGTSVTVSS VL: DIQMTQTTSSLSASLGDRVTISCRASQDINNYLNWYQQKPDGTIKLLIYYTSRLHSGVPSRFSGSGSGTDYSLTINNLEQEDIATYFCQQGNTLPFTFGGGTKLEIK", "binding result": "binds"}
